These entries and their values trace back to patent US20120316071A1.

# tested target: T1, Recombinant Human DLL4 (R&D Systems Cat#1506-D4/CF) (human, UniProt Q9NR61 27-524)
# T1 construct: Bought recombinant protein; also called delta-like protein 4; rHuman DLL4
# test method notes: ECL multispot (MSD) binding assay, DLL4 signal over blank spot; Fab concentration not given
Each record here notes measured Signal/Blank.
Answer field: number only, no words.

Worked cases, answers included:
1. Fab VH1-46_IGHD6-6*01_IGHJ1*01 S102A/S103P/S104F/H111F (APFF) & L6_IGKJ1*01 S28A (Fab, V domains shown, Fab expressed in E. coli: VH joined to CH1 (Plasmid A, His6 and Flag tags), VL joined to kappa CL (Plasmid C); also called APFF S28A) VH: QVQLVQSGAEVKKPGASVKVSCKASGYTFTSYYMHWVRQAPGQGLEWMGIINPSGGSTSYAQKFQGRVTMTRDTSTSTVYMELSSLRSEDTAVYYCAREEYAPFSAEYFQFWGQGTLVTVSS VL: EIVLTQSPATLSLSPGERATLSCRASQAVSSYLAWYQQKPGQAPRLLIYDASNRATGIPARFSGSGSGTDFTLTISSLEPEDFAVYYCQQRSNWPPWTFGQGTKVEIKR :: 472
2. Fab VH1-46_IGHD6-6*01_IGHJ1*01 S102A/S103P/S104F/H111F (APFF) & L6_IGKJ1*01 S30L (Fab, V domains shown, Fab expressed in E. coli: VH joined to CH1 (Plasmid A, His6 and Flag tags), VL joined to kappa CL (Plasmid C); also called APFF S30L) VH: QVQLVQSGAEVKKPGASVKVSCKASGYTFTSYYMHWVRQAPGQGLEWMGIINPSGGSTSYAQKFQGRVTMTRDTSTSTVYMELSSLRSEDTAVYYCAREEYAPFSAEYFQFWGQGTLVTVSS VL: EIVLTQSPATLSLSPGERATLSCRASQSVLSYLAWYQQKPGQAPRLLIYDASNRATGIPARFSGSGSGTDFTLTISSLEPEDFAVYYCQQRSNWPPWTFGQGTKVEIKR :: 524
3. Fab VH1-46_IGHD6-6*01_IGHJ1*01 S102A/S103P/S104F/H111F (APFF) & L6_IGKJ1*01 S30C (Fab, V domains shown, Fab expressed in E. coli: VH joined to CH1 (Plasmid A, His6 and Flag tags), VL joined to kappa CL (Plasmid C); also called APFF S30C) VH: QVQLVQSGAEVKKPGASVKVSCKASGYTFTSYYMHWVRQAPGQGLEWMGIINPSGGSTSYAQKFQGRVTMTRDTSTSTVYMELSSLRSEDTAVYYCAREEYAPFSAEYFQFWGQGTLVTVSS VL: EIVLTQSPATLSLSPGERATLSCRASQSVCSYLAWYQQKPGQAPRLLIYDASNRATGIPARFSGSGSGTDFTLTISSLEPEDFAVYYCQQRSNWPPWTFGQGTKVEIKR :: 141

Below: the item to evaluate.
Exercise: Please indicate Signal/Blank recorded for Fab VH1-46_IGHD6-6*01_IGHJ1*01 S102A/S103P/S104F/H111F (APFF) & L6_IGKJ1*01 S28M (Fab, V domains shown, Fab expressed in E. coli: VH joined to CH1 (Plasmid A, His6 and Flag tags), VL joined to kappa CL (Plasmid C); also called APFF S28M) VH: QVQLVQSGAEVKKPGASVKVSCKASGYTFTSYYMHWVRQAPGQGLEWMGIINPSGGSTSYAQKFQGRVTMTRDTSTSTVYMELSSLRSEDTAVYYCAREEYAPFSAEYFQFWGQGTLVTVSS VL: EIVLTQSPATLSLSPGERATLSCRASQMVSSYLAWYQQKPGQAPRLLIYDASNRATGIPARFSGSGSGTDFTLTISSLEPEDFAVYYCQQRSNWPPWTFGQGTKVEIKR
Solution: 336
